# Test system: K562
# test_summary: NCI tumour cell line growth inhibition, 48 h
Activity calls are given as the source filed them. Cut-off read from the data, not from the text of the source: active = GI50 up to about 1.1 µM and inactive = higher. Square brackets hold non-standard residues; d marks the D form. Peptide text beside a SMILES is read from it. * marks the point of attachment. ξ: configuration not given here. NMeN = CN[C@@H](CC(N)=O)C(=O)O; NMeV = CN[C@H](C(=O)O)C(C)C; ξNMeV = CNC(C(=O)O)C(C)C; Boc = CC(C)(C)OC(=O)*; ξNMeA = CNC(C)C(=O)O
attribute_measured: GI50

Worked cases, answers included:
1) c1ccc(N2N=C(c3ccco3)CC2c2ccco2)cc1 (stereo not given)
34.3 µM (inactive)
2) CSc1nc(-c2ccc(C)cc2)c(C#N)c(=O)[nH]1
> 100 µM (inactive)
3) N#CCCN(CCNc1ccccc1)C(=O)Nc1ccc(NC(=O)N(CCC#N)CCNc2ccccc2)cc1
> 100 µM (inactive)
4) COC(=O)C(C)N(C)C(=O)[C@H](CC(N)=O)N(C)C(=O)[C@@H]1CCCN1C(=O)[C@H](C(C)C)N(C)C(=O)C(C(C)C)N(C)C(=O)[C@@H](NC(=O)OC(C)(C)C)C(C)C (stereo not given in full) (Boc-V[ξNMeV][NMeV]P[NMeN][ξNMeA]-OMe)
43.4 µM (inactive)
5) Cc1ccc2nc(-c3ccc(C(C)(C)C)cc3)oc(=O)c2c1
17.3 µM (inactive)
6) COc1cccc2c1C(=O)c1c(O)c3c(c(O)c1C2=O)CC(O)(C(C)=O)CC3O (stereo not given)
4.34 µM (inactive)
7) O=S(=O)(O)c1cc(S(=O)(=O)O)c2c(/N=N/c3ccccc3)c(O)ccc2c1
> 100 µM (inactive)
8) NCCCN1CCN(CC(=O)O)CCN(CCCN)CCN(CC(=O)O)CC1
6.67 µM (inactive)
9) CCOC(=O)c1cc(NC(=O)c2ccccc2)c(=O)n2c(cc3c(Cl)cccc32)c1O
> 100 µM (inactive)
10) CC1=NN(c2nc(N)nc(CSCc3nc(N)nc(N(C)C)n3)n2)C(C)(C)C1
18.2 µM (inactive)

The record that follows has no GI50 shown yet.
Dear colleague, I am looking for the recorded GI50 of the following molecule: "COc1ccc2c(c1)/C(=C\c1c(Cl)[nH]c3ccccc13)C(=O)N2"
3.62 µM (inactive)

---

# Tested on: OVCAR-8
# test_summary: NCI tumour cell line growth inhibition, 48 h
Active and inactive are the calls of the source. Rule as the data show it: active = GI50 up to about 1.1 µM and inactive = higher.
GI50 reference

1. O=c1oc2c/c(=C\c3ccc([N+](=O)[O-])cc3)c(=O)c3cccc1c3-2
30.8 µM (inactive)

Would you kindly share the measured GI50 for O=C1C2Cc3ccccc3CN2C(=O)N1CN1CCN(CN2C(=O)C3Cc4ccccc4CN3C2=O)CC1 (configuration not stated) ?
> 100 µM (inactive)

State the recorded GI50 for this entry: C=C1C(=O)OC2/C=C(/C)C3(O)OC(C)(CC(OC(=O)C(C)C)C12)CC3OC(C)=O (configuration not stated)
3.27 µM (inactive)

I'd like to know its GI50. The molecule in question is "O=C1c2ccccc2C(=O)c2c(NCCCN3CCOCC3)ccc(NCCCN3CCOCC3)c21"
1.9 µM (inactive)

---

# System: MDA-MB-231
# test_summary: NCI tumour cell line growth inhibition, 48 h
The source made the active and inactive calls. Cut-off read from the data, not from the text of the source: active = GI50 up to about 1.1 µM and inactive = higher.
Readings of GI50 for the listed compounds

1) Cc1cc(Cc2c(C)c(C)c(Cc3cc(C)cc(C(C)(C)C)c3O)c(C)c2C)c(O)c(C(C)(C)C)c1
> 100 µM (inactive)

What measured GI50 goes with "Cc1noc2nnn(-c3ccc(Cl)cc3)c(=O)c12" ?
8.95 µM (inactive)

I'd like to know its GI50. The compound in question is Clc1ccc(C2ON=C(c3ccccc3)N2C23CC4CC(CC(C4)C2)C3)cc1 (stereo not given)
> 10 µM (inactive)

Recorded GI50 of "COc1ccc(OC)c2sc(N3C(=O)/C(=C/c4cccc([N+](=O)[O-])c4)N=C3c3ccccc3)nc12" , please.
> 100 µM (inactive)

---

# System: SK-MEL-2
# test_summary: NCI tumour cell line growth inhibition, 48 h
Calls of active or inactive are those of the source. No stated cut-off is given here; in the data, active = GI50 up to about 1.1 µM and inactive = higher.
The following compounds are listed with their measured GI50 values.

Past entries and their recorded results:
1) Nc1ccc2nc3n(c2c1)C(c1c(F)cccc1F)SC3 (stereo unspecified)
> 100 µM (inactive)
2) C[C@]12C[C@@H](OC(=O)[C@]1(C)O)[C@@H]([C@]1(O)CC[C@H]3[C@@H]4C[C@H]5O[C@]56C[C@H]5O[C@H]5C(=O)[C@]6(C)[C@H]4CC[C@@]31C)C2
> 50 µM (inactive)
3) Cc1ccc(Cc2nn(C)c(=O)n2-n2cccc2)cc1
> 100 µM (inactive)
4) C#C[C@H]1CCCCCC1O (stereo partly specified)
> 100 µM (inactive)
5) Cc1ccc2nc(-c3ccc(C(C)(C)C)cc3)oc(=O)c2c1
26.7 µM (inactive)

So what's the measured GI50 for this one? "COc1ccc(/N=N/N2CCCC2)cc1"
> 100 µM (inactive)

---

# Test system: SR
# test_summary: NCI tumour cell line growth inhibition, 48 h
Activity calls are given as the source filed them. No stated cut-off is given here; in the data, active = GI50 up to about 1.1 µM and inactive = higher.
Reported GI50 values for a set of compounds

Worked examples, 5 compounds total:
1. O=C1c2ccccc2C(=O)c2c(NCCCN3CCOCC3)ccc(NCCCN3CCOCC3)c21
5.57 µM (inactive)
2. Cn1c(O)c(C2=Nc3ccccc3C2=O)c2ccccc21
> 100 µM (inactive)
3. CCCCn1c(C)c(C(=O)CC)c(C(=O)NCCN2CCN(c3ccccc3Cl)CC2)c1C
13.7 µM (inactive)
4. O=C1C=C(Nc2ccccc2C(=O)CC(=O)C(=O)Nc2ccc(Cl)c(Cl)c2)c2ccccc2C1=O
5 µM (inactive)
5. S=C1N(c2ccc(Cl)cc2)C2=C(/N=N/c3ccccc3)C(=Nc3ccccc3S2)N1c1ccccn1
11.2 µM (inactive)

Data request, read-out GI50, for COc1cccc(N2C(=O)CSC2c2c[nH]c3ccccc23)c1 (stereo not given)
> 100 µM (inactive)

What measured GI50 goes with O=C(/C=C/c1ccc(O)cc1)OC[C@@H](O)COC1OC(CO)C(O)C(O)C1O (stereo not given in full) ?
> 100 µM (inactive)

// lookup GI50 for CCOC1=NC(C(F)(F)F)(C(F)(F)F)N=C(/N=C(/N)N(C)C(C(C)C)P(=O)(OC(C)C)OC(C)C)O1 (stereo not given)
55.3 µM (inactive)

// lookup GI50 for NC1CNC(=O)c2c(Cl)sc(Cl)c21 (stereo not given)
41.4 µM (inactive)

Which GI50 reading was recorded for the compound COc1ccc(C)cc1C1CCC(=O)O1 (stereo not given) ?
> 100 µM (inactive)

---

# GI50 per entry
# System: HCC 2998
# test_summary: NCI tumour cell line growth inhibition, 48 h
Calls of active or inactive are those of the source. Rule as the data show it: active = GI50 up to about 1.1 µM and inactive = higher.

Example entries and their recorded answers appear below.
1. COc1ccc2c(=O)c(C)c(-c3ccccc3)oc2c1CN(C)C
> 100 µM (inactive)
2. COc1cc(/C=C2\CCC(C)(CN(C)C)C2=O)cc(OC)c1OC (stereo not given)
> 100 µM (inactive)

Next, consider the following compound.
Can you share its GI50? I mean this compound: "COc1ccc(N2C=Nn3c(nc4sc(C)c(C)c4c3=O)C2)cc1"
> 100 µM (inactive)

---

# Test system: NCI-H460
# test_summary: NCI tumour cell line growth inhibition, 48 h
Activity calls are given as the source filed them. Rule as the data show it: active = GI50 up to about 1.1 µM and inactive = higher.
I would appreciate it if you answered using one of these outcomes: active, inactive

Here are 4 molecules together with their reported answers.
1. C=C1C(=O)OC2/C=C(/C)C3(O)OC(C)(CC(OC(=O)C(C)C)C12)CC3OC(C)=O (stereo not given)
inactive
2. OCCc1ccsc1-c1sc(-c2cc(CCO)c(-c3sc(-c4cc(CCO)c(-c5sccc5CCO)s4)cc3CCO)s2)cc1CCO
active
3. CC(=O)O[C@H]1[C@@H](N2CCOCC2)C[C@H]2[C@@H]3CC=C4C[C@@H](N5CCCC5)CC[C@]4(C)[C@H]3CC[C@@]21C
inactive
4. O=C(O)CP(=S)(S)c1ccccc1 (stereo not given)
inactive

I would be grateful if you could indicate the recorded call for Nc1ccc2nc3n(c2c1)C(c1c(F)cccc1F)SC3 (stereo not given) .
inactive

Per the records of this test, what outcome belongs to "CO/C(C)=N/CCC1=CCCCC1" ?
inactive

Given O=CC(O)C(O)C(O)C(O)COP(=O)(O)Cc1ccccc1 (stereo not given) , state the outcome it received in this test.
inactive

---

# Test system: T47D
# test_summary: NCI tumour cell line growth inhibition, 48 h
Calls of active or inactive are those of the source. Cut-off read from the data, not from the text of the source: active = GI50 up to about 1.1 µM and inactive = higher.
attribute_measured: GI50

Sample records with GI50:
1. NC1CNC(=O)c2c(Cl)sc(Cl)c21 (stereo unspecified)
> 100 µM (inactive)
2. O=S1(=O)OCCOS(=O)(=O)C1C1c2ccccc2-c2ccccc21
93.8 µM (inactive)
3. COc1nn(Cc2ccccn2)c2ccc([N+](=O)[O-])cc12
77.8 µM (inactive)
4. COC(=O)[C@@H](NC1(c2ccccc2)c2ccccc2-c2ccccc21)[C@H](OC(=O)[C@H]1CCCN1S(=O)(=O)c1ccccc1)C(=O)OC
> 100 µM (inactive)
5. CC1(C(=O)O)CCC2(C)CCC3(C)C(=CC(=O)C4C5(C)CCC(O)C(C)(C)C5CCC43C)C2C1 (stereo unspecified)
30.8 µM (inactive)
6. CCCCCCCCCCCCCCCC(=O)OCC1OC(OC)C2NP(=O)(N(CCCl)CCCl)OC1C2O (stereo unspecified)
2.73 µM (inactive)
7. COC1=CC(=O)C(C2(OC(C)C)OC(=O)C(Cl)=C2Cl)=CC1=O (stereo unspecified)
> 100 µM (inactive)
8. OC1(c2ccc(Cl)cc2)c2c(ccc3c2OCO3)C2=NCCN21 (stereo unspecified)
31.7 µM (inactive)

Entry CCOC(=O)CCC(C(=O)OCC)n1nnc2ccc(Nc3c(C)[n+]([O-])c4ccc(Cl)cc4[n+]3[O-])cc21 (stereo unspecified) has what GI50?
34 µM (inactive)

Look up GI50 for this compound: COc1ccc(C2NC(N)=C(C#N)C3=C2C(C)CCC3)cc1OC (stereo unspecified)
2.96 µM (inactive)

Given the entry "Clc1ccc(-c2nn3c(-c4ccncc4)nnc3s2)cc1" , report its measured GI50.
> 100 µM (inactive)

Query (compound): "COP(=O)(OC)/C(=C\C1=CN(C(c2ccccc2)(c2ccccc2)c2ccccc2)CN1)NC=O" ; field requested: GI50
17.6 µM (inactive)

// GI50 lookup, key: NCCN1C(=O)c2ccccc2C1c1ccc(Cl)cc1 (stereo unspecified)
> 100 µM (inactive)
